- Tgt: Estrogen receptor beta (Homo sapiens)
- Test Name: Binding affinity to ERbeta (unknown origin) by competitive fluorometric receptor binding assay relative to estradiol
Assign labels as follows, please: true (1) for relative binding affinity (RBA) below 0.05; false (0) for relative binding affinity (RBA) equal to or exceeding 0.05.

- Compound: "CCCCCCOc1ccc(C2=C(c3ccc(O)cc3)[C@H]3C[C@H](S(=O)(=O)N(CC(F)(F)F)c4ccc(OC)cc4)[C@@H]2O3)cc1 (relative stereo)"
  Assigned Label: "true (1)"
- Compound: "CCCCCCCCCCCCOc1ccc(C2=C(c3ccc(O)cc3)[C@H]3O[C@@H]2C[C@@H]3S(=O)(=O)N(CC(F)(F)F)c2ccc(OC)cc2)cc1 (relative stereo)"
  Assigned Label: "true (1)"
- Compound: "CCCCCCCCOc1ccc(C2=C(c3ccc(O)cc3)[C@H]3O[C@@H]2C[C@@H]3S(=O)(=O)N(CC(F)(F)F)c2ccc(Cl)cc2)cc1"
  Assigned Label: "true (1)"
- Compound: "CCCCCCOc1ccc(C2=C(c3ccc(O)cc3)[C@H]3C[C@H](S(=O)(=O)N(CC)c4ccccc4)[C@@H]2O3)cc1 (relative stereo)"
  Assigned Label: "false (0)"
- Compound: "CCCCCCCCOc1ccc(C2=C(c3ccc(O)cc3)[C@H]3O[C@@H]2C[C@@H]3S(=O)(=O)N(CC(F)(F)F)c2ccc(OC)cc2)cc1 (relative stereo)"
  Assigned Label: "false (0)"
- Compound: "CCCCOc1ccc(C2=C(c3ccc(O)cc3)[C@H]3O[C@@H]2C[C@@H]3S(=O)(=O)N(CC)c2ccccc2)cc1 (relative stereo)"
  Assigned Label: "true (1)"
- Compound: "CCCCOc1ccc(C2=C(c3ccc(O)cc3)[C@H]3O[C@@H]2C[C@@H]3S(=O)(=O)N(CC(F)(F)F)c2ccc(Cl)cc2)cc1 (relative stereo)"
  Assigned Label: "false (0)"
- Compound: "CCCCCOc1ccc(C2=C(c3ccc(O)cc3)[C@H]3C[C@H](S(=O)(=O)N(CC(F)(F)F)c4ccc(OC)cc4)[C@@H]2O3)cc1 (relative stereo)"
  Assigned Label: "true (1)"
- Compound: "CCCCCCCCCCOc1ccc(C2=C(c3ccc(O)cc3)[C@H]3C[C@H](S(=O)(=O)N(CC(F)(F)F)c4ccc(OC)cc4)[C@@H]2O3)cc1 (relative stereo)"
  Assigned Label: "false (0)"
- Compound: "CCCCCCOc1ccc(N(CC)S(=O)(=O)[C@H]2C[C@H]3O[C@@H]2C(c2ccc(O)cc2)=C3c2ccc(O)cc2)cc1 (relative stereo)"
  Assigned Label: "false (0)"
